- System: P388 leukemia ip, CD2F1 mice, survival T/C
- assay-summary: NCI In Vivo Anticancer Drug Screen. Data for tumor model P388 Leukemia (intraperitoneal) in CD2F1 (CDF1) mice
- stated-conditions: endpoint: median survival time; dose: 50.0 mg/kg/injection; schedule: Q01DX009 (ip); vehicle: saline; higher = longer survival
Toxic doses and inconclusive results are not listed.
Listed below: T/C values for each entry.

The following compounds have reported results that may help.
>>> result("CN(C)C(=O)C[n+]1ccccc1")
"101 % of control"
>>> result("O=c1[nH]c(-c2ccccc2)nc2nc3ccc([N+](=O)[O-])cc3[n+]([O-])c12")
"93 % of control"
>>> result("COc1ccc(NC(CCN2CCN(CCC(=NC(C)(C)C)Nc3ccc(OC)cc3)CC2)=NC(C)(C)C)cc1")
"109 % of control"

Find T/C (P388 leukemia ip, CD2F1 mice, survival T/C) for the entry `CCOC(=O)c1ccc(NC(=O)CSc2nc3ccccc3o2)cc1`
114 % of control

And for `C=COC(=O)N(C)C` ?
118 % of control

And for `Cc1cccc(NC(=O)NC2CCCCC2)c1` ?
103 % of control

And for `CCCCCCC[CH2][Sn]([CH2]CCCCCCC)([CH2]CCCCCCC)[O]C(C)=O` ?
97 % of control

And for `CCCCCCCCCCCC[S][Sn]([CH2]CCC)([S]CCCCCCCCCCCC)[S]CCCCCCCCCCCC` ?
87 % of control

---

- System: P388 leukemia ip, CD2F1 mice, survival T/C
- assay-summary: NCI In Vivo Anticancer Drug Screen. Data for tumor model P388 Leukemia (intraperitoneal) in CD2F1 (CDF1) mice
- stated-conditions: endpoint: median survival time; dose: 6.25 mg/kg/injection; schedule: Q01DX009 (ip); vehicle: Klucel (hydroxypropylcellulose) (HPC); higher = longer survival
Inconclusive results and toxic doses are left out.
measured-quantity: T/C

What T/C value was documented for this compound, `O=c1oc(-c2cccc([N+](=O)[O-])c2)ns1` ?
101 % of control

And for C1=CCC23CCCCC2(C1)CN(/N=N/N1CC24CC=CCC2(CCCC4)C1)C3 (configuration not stated) ?
87 % of control

And for `ClCCn1c(CCl)nc2ccc(Cl)cc21` ?
101 % of control

And for `COc1cc2oc(-c3ccc(O)cc3O)c(CC=C(C)C)c(=O)c2c(O)c1/C=C/C(C)C` ?
100 % of control

And for `CC(=O)Nc1ccc2nc(SC(C)C)sc2c1` ?
104 % of control

And for `O=C1CCCCCCCCCCCCCCCO1` ?
103 % of control

And for `O=C(O)c1c2c(nc3ccccc13)Cc1ccccc1-2` ?
97 % of control

---

Listed below: T/C values for each entry.
- Tested on: P388 leukemia ip, CD2F1 mice, survival T/C
- assay-summary: NCI In Vivo Anticancer Drug Screen. Data for tumor model P388 Leukemia (intraperitoneal) in CD2F1 (CDF1) mice
- stated-conditions: endpoint: median survival time; dose: 50.0 mg/kg/injection; schedule: Q01DX009 (ip); vehicle: suspension in saline; higher = longer survival
Inconclusive results and toxic doses are left out.

The following molecules have reported results that may help.
>>> result("CCCCN1C(=S)NC(OC)C1(C)C (centres undefined)")
"100 % of control"
>>> result("NC(CCCCNC(=O)OCCCCCOC(=O)NCCCCC(N)C(=O)O)C(=O)O (centres undefined)")
"95 % of control"
>>> result("CC(CCc1ccc(O)cc1)NCCc1ccc(O)c(O)c1 (centres undefined)")
"100 % of control"

Moving on to another molecule below.
What T/C value was documented for this molecule, `CC1(C)CC(OC(=O)CCC(=O)OC2CC(C)(C)N(O)C(C)(C)C2)CC(C)(C)N1O` ?
100 % of control

---

- Tested on: P388 leukemia ip, CD2F1 mice, survival T/C
- assay-summary: NCI In Vivo Anticancer Drug Screen. Data for tumor model P388 Leukemia (intraperitoneal) in CD2F1 (CDF1) mice
- stated-conditions: endpoint: median survival time; dose: 50.0 mg/kg/injection; schedule: Q01DX005 (ip); vehicle: saline; higher = longer survival
Toxic doses and inconclusive results are not listed.
measured-quantity: T/C

What T/C value was documented for this molecule, CC1(CCl)CC1(Cl)Cl (configuration not stated) ?
103 % of control

And for COC(=O)CC(N)C(=O)O (configuration not stated) ?
99 % of control

And for COCC1(O)C=CC(=O)O1 (configuration not stated) ?
105 % of control

And for NC(CCC(=O)NC(CSSCC(NC(=O)CCC(N)C(=O)O)C(=O)O)C(=O)O)C(=O)O (configuration not stated) ?
99 % of control

And for COc1cc2c(cc1OC)C13CCN4CC5=CCOC6CC(=O)N2C1C6C5C3C4 (configuration not stated) (tested in a mixture with another compound) ?
98 % of control

And for `CCOC(=O)c1ccnc2ccc(OCCN(CC)CC)cc12` ?
96 % of control

And for CC(O)C(NC(=O)c1ccc([N+](=O)[O-])cc1)C(=O)O (configuration not stated) ?
105 % of control

---

- Test system: P388 leukemia ip, CD2F1 mice, survival T/C
- assay-summary: NCI In Vivo Anticancer Drug Screen. Data for tumor model P388 Leukemia (intraperitoneal) in CD2F1 (CDF1) mice
- stated-conditions: endpoint: median survival time; dose: 200.0 mg/kg/injection; schedule: Q01DX009 (ip); vehicle: saline with Tween-80; higher = longer survival
Inconclusive results and toxic doses are left out.
measured-quantity: T/C

>>> result("CCCCCCC(=O)/C=C/c1ccc(OC)c(OC)c1")
"115 % of control"
>>> result("O=C(O)CC(=O)c1ccccc1")
"89 % of control"
>>> result("CN(C)c1nc(N(C)C)nc([N+]23CN4CN(CN(C4)C2)C3)n1")
"114 % of control"
>>> result("O=C(NC1CCCCC1)OCc1c(COC(=O)NC2CCCCC2)c(-c2ccc(Cl)c(Cl)c2)n2c1CCC2")
"91 % of control"
>>> result("CC(C)=CCc1c2c(c(O)c3c(=O)c(-c4ccc(O)c(O)c4)coc13)C=CC(C)(C)O2")
"106 % of control"

Find T/C (P388 leukemia ip, CD2F1 mice, survival T/C) for the entry `CCCCCCC(=O)/C=C/c1cc(OC)cc(OC)c1`
91 % of control

And for `COC(=S)c1cccc(C(=S)OC)c1` ?
108 % of control

And for `C[C@@H]1C[C@H]2CC[C@H](O2)[C@H](C)C(=O)O[C@@H](C)C[C@@H]2CC[C@@H](O2)[C@@H](C)C(=O)O[C@H](C)C[C@H]2CC[C@H](O2)[C@H](C)C(=O)O[C@@H](C)C[C@@H]2CC[C@@H](O2)[C@@H](C)C(=O)O1` ?
104 % of control

And for CCC(C)C(NC(=O)C(F)(F)F)C(=O)O (centres undefined) ?
103 % of control

---

- Tested on: P388 leukemia ip, CD2F1 mice, survival T/C
- assay-summary: NCI In Vivo Anticancer Drug Screen. Data for tumor model P388 Leukemia (intraperitoneal) in CD2F1 (CDF1) mice
- stated-conditions: endpoint: median survival time; dose: 50.0 mg/kg/injection; schedule: Q01DX009 (ip); vehicle: saline with Tween-80; higher = longer survival
Inconclusive results and toxic doses are left out.
measured-quantity: T/C

The following compounds have reported results that may help.
>>> result("O=[N+]([O-])c1cccc(SNc2cccc(Cl)c2)c1")
"95 % of control"
>>> result("N#Cc1ncc(C=P(c2ccccc2)(c2ccccc2)c2ccccc2)n(O)c1=N")
"101 % of control"
>>> result("CC1(C)OC2C(COC(=O)Oc3ccccc3)OC(n3cnc4c(=S)nc[nH]c43)C2O1 (stereo not drawn)")
"95 % of control"
>>> result("CCOC(=O)c1ccc(NC(=NC)c2ccccc2)cc1")
"108 % of control"
>>> result("COc1ccc(NC(CCN2CCN(CCC(=NC(C)(C)C)Nc3ccc(OC)cc3)CC2)=NC(C)(C)C)cc1")
"97 % of control"
>>> result("CC(C)(C)C(=O)Oc1cc2c(cc1OC(=O)C(C)(C)C)C(c1ccccc1)CNCC2 (stereo not drawn)")
"98 % of control"
>>> result("C/C=C1/CN2CCc3c([nH]c4ccccc34)C2CC1C(Cc1c[n+]2c(c3[nH]c4ccccc4c13)CC1C(C(=O)OC)=COC(C)C1C2)C(=O)OC (stereo not drawn)")
"89 % of control"
>>> result("COCCCNC1=C(C#N)C(=O)NC(c2cccs2)S1 (stereo not drawn)")
"117 % of control"

Moving on to another compound below.
Find T/C (P388 leukemia ip, CD2F1 mice, survival T/C) for the entry `CCCCCCCCCOCC(=O)OC`
105 % of control
